molecular target: IMP-1 (Serratia marcescens, UniProt P52699); experiment: biochemical; format: biochemical; conditions: fluorescence assay, CCF2-FA substrate, 2 pM enzyme, 2 hours at 25° C.; read-out: IMP-1 IC50
Sequence (P52699 whole entry, looked up, species assumed): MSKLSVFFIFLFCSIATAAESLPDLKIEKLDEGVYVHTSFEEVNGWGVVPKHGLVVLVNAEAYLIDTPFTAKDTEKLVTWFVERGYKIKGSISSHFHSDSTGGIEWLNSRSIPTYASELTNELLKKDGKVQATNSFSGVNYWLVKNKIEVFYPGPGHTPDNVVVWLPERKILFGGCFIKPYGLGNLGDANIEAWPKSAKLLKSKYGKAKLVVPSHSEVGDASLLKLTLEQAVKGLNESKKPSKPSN
pIC50: −log10 of the molar value.
Rule: pIC50 of 9 or more gives rule met; anything lower gives rule not met.

>  <compound>
Nc1nc2c(-c3ccc(S(=O)(=O)NCCC(N)CF)c(S(N)(=O)=O)c3-c3nnn[nH]3)cccc2s1.O=CO (stereo not shown) [Example 123, formate]

>  <assignedCategory>
rule met

$$$$
>  <compound>
NCCNS(=O)(=O)c1ccc(-c2ccccc2NC(=O)CN)c(-c2nn[nH]n2)c1S(N)(=O)=O

>  <assignedCategory>
rule not met

$$$$
>  <compound>
NCc1nc2cc(-c3ccc(S(=O)(=O)NC[C@@H](O)CN)c(S(N)(=O)=O)c3-c3nn[nH]n3)ccc2s1

>  <assignedCategory>
rule met

$$$$
>  <compound>
NCCNS(=O)(=O)c1ccc(-c2cccc(NC[C@H](O)CN)c2)c(-c2nn[nH]n2)c1S(N)(=O)=O

>  <assignedCategory>
rule not met

$$$$
>  <compound>
C[C@H](CN)NS(=O)(=O)c1ccc(-c2ccnc(N)c2)c(-c2nn[nH]n2)c1S(N)(=O)=O

>  <assignedCategory>
rule met

$$$$

Here's the next entry for you.
Q) # bool: pIC50 of Nc1nc2c(-c3ccc(S(=O)(=O)NC[C@H]4CNCCN4)c(S(N)(=O)=O)c3-c3nn[nH]n3)cccc2[nH]1 >= 9
A) rule met

###

test system: Pseudomonas aeruginosa MB9798 vs MB9799; conditions: ratio MITC95 PA_9798/MITC95 PA_9799
observationType: Efflux ratio
Write no unit; give the number alone.

Here are 3 molecules together with their reported answers.
>  <testSmiles>
NS(=O)(=O)c1ccc(-c2ccc(S(=O)(=O)N[C@@H]3CCNC3)c(S(N)(=O)=O)c2-c2nnn[nH]2)cc1

>  <Efflux ratio>
1.00

$$$$
>  <testSmiles>
Nc1nc2c(-c3ccc(S(=O)(=O)N[C@H]4CCNC4)c(S(N)(=O)=O)c3-c3nn[nH]n3)cccc2[nH]1

>  <Efflux ratio>
0.87

$$$$
>  <testSmiles>
Nc1nc2c(-c3ccc(S(=O)(=O)NC[C@H]4CCNC4)c(S(N)(=O)=O)c3-c3nn[nH]n3)cccc2[nH]1

>  <Efflux ratio>
1.00

$$$$

The value of Efflux ratio measured for the molecule CC(C)(N)CNS(=O)(=O)c1ccc(-c2cccc3sc(N)nc23)c(-c2nnn[nH]2)c1S(N)(=O)=O turned out to be 0.50

###

test system: Serratia marcescens expressing IMP-1 (CL5741); format: cell-based; settings: IMP-1 strain CL5741, with imipenem 1 μg/ml, 95% inhibition of growth
observationType: Serratia marcescens MITC95 (µM)
Give the value, in units of µM, as a plain number.

>  <testSmiles>
NC[C@@H](O)CNS(=O)(=O)c1ccc(-c2ccnc(N)c2)c(-c2nn[nH]n2)c1S(N)(=O)=O

>  <Serratia marcescens MITC95 (µM)>
0.7813

$$$$
>  <testSmiles>
Nc1ncc(-c2ccc(S(=O)(=O)N[C@H]3CNC[C@H]3N)c(S(N)(=O)=O)c2-c2nn[nH]n2)s1

>  <Serratia marcescens MITC95 (µM)>
1.563

$$$$
>  <testSmiles>
NS(=O)(=O)c1c(S(=O)(=O)N[C@@H]2CCNC2)ccc(-c2cccc(Nc3nc(CO)cs3)c2)c1-c1nn[nH]n1

>  <Serratia marcescens MITC95 (µM)>
1.563

$$$$
>  <testSmiles>
NCCNS(=O)(=O)c1ccc(-c2cccc(C(=O)NC[C@H](O)CN)c2)c(-c2nn[nH]n2)c1S(N)(=O)=O

>  <Serratia marcescens MITC95 (µM)>
1.563

$$$$

The value of Serratia marcescens MITC95 measured for the compound Nc1nc2c(-c3ccc(S(=O)(=O)NC4CCNCC4)c(S(N)(=O)=O)c3-c3nn[nH]n3)cccc2[nH]1 turned out to be 1.563

The value of Serratia marcescens MITC95 measured for the compound Nc1nc2c(-c3ccc(S(=O)(=O)NCC4(O)CNC4)c(S(N)(=O)=O)c3-c3nn[nH]n3)cccc2s1 turned out to be 1.563

The value of Serratia marcescens MITC95 measured for the compound Nc1ccc(-c2ccc(S(=O)(=O)NC[C@H]3CCCN3)c(S(N)(=O)=O)c2-c2nn[nH]n2)cn1 turned out to be 0.3906

The value of Serratia marcescens MITC95 measured for the compound C[C@H](N)Cc1nc2c(-c3ccc(S(N)(=O)=O)c(S(N)(=O)=O)c3-c3nn[nH]n3)cccc2[nH]1 turned out to be 1.563

The value of Serratia marcescens MITC95 measured for the compound C[C@H](CN)NS(=O)(=O)c1ccc(-c2cc(F)cc3[nH]c(N)nc23)c(-c2nn[nH]n2)c1S(N)(=O)=O turned out to be 0.3906

The value of Serratia marcescens MITC95 measured for the compound N[C@@H]1CNC[C@@H]1NS(=O)(=O)c1ccc(-c2cnc3cc[nH]c3c2)c(-c2nn[nH]n2)c1S(N)(=O)=O turned out to be 1.563

The value of Serratia marcescens MITC95 measured for the compound Nc1ccc(-c2ccc(S(=O)(=O)NC[C@]3(N)CCNC3)c(S(N)(=O)=O)c2-c2nn[nH]n2)cn1 turned out to be 0.7813

The value of Serratia marcescens MITC95 measured for the compound CNc1nc2c(-c3ccc(S(=O)(=O)N[C@@H]4CCNC4)c(S(N)(=O)=O)c3-c3nn[nH]n3)cccc2[nH]1 turned out to be 0.7813

The value of Serratia marcescens MITC95 measured for the compound Nc1ncc(-c2ccc(S(=O)(=O)N[C@@H]3CCNC3)c(S(N)(=O)=O)c2-c2nn[nH]n2)s1 turned out to be 0.7813

The value of Serratia marcescens MITC95 measured for the compound Nc1ncccc1-c1ccc(S(=O)(=O)NC[C@H]2CNCCN2)c(S(N)(=O)=O)c1-c1nn[nH]n1 turned out to be 0.7813

###

Listed compounds paired with reported IC50
molecular target: VIM-1 (Pseudomonas aeruginosa (strain ATCC 15692 / DSM 22644 / CIP 104116 / JCM 14847 / LMG 12228 / 1C / PRS 101 / PAO1), UniProt A0A0F7KYQ8); experiment: biochemical; settings: VIM-1 IC50, fluorescence assay, CCF2-FA substrate, 30 pM enzyme, 2 hours at 25° C.
Give the value, in units of nM, as a plain number.

Here are 10 compounds together with their reported answers.
>  <compound>
NCCNS(=O)(=O)c1ccc(-c2cccc(C(=O)NC[C@H](O)CN)c2)c(-c2nn[nH]n2)c1S(N)(=O)=O

>  <uom>
nM

>  <IC50>
0.467

$$$$
>  <compound>
Nc1nc2c(-c3ccc(S(=O)(=O)N[C@H]4CN[C@@H](CO)C4)c(S(N)(=O)=O)c3-c3nnn[nH]3)cccc2[nH]1

>  <uom>
nM

>  <IC50>
0.284

$$$$
>  <compound>
NS(=O)(=O)c1c(S(=O)(=O)N[C@@H]2CCNC2)ccc(-c2cccc3[nH]nnc23)c1-c1nn[nH]n1

>  <uom>
nM

>  <IC50>
0.105

$$$$
>  <compound>
Nc1nc2c(-c3ccc(S(=O)(=O)N[C@H]4CNC[C@H]4N)c(S(N)(=O)=O)c3-c3nn[nH]n3)cccc2[nH]1

>  <uom>
nM

>  <IC50>
0.182

$$$$
>  <compound>
Nc1nc2c(-c3ccc(S(=O)(=O)N[C@@H]4CN[C@H](CO)C4)c(S(N)(=O)=O)c3-c3nnn[nH]3)cccc2[nH]1

>  <uom>
nM

>  <IC50>
0.334

$$$$
>  <compound>
Nc1nc2c(-c3ccc(S(=O)(=O)NCCC(N)CF)c(S(N)(=O)=O)c3-c3nnn[nH]3)cccc2s1.O=CO (stereo not shown) [Example 123, formate]

>  <uom>
nM

>  <IC50>
0.189

$$$$
>  <compound>
Nc1nc2c(-c3ccc(S(=O)(=O)NCCC(N)C(F)F)c(S(N)(=O)=O)c3-c3nnn[nH]3)cccc2s1.O=CO (stereo not shown) [Example 124, formate]

>  <uom>
nM

>  <IC50>
0.254

$$$$
>  <compound>
NCCNS(=O)(=O)c1ccc(-c2cccc3[nH]c(N)nc23)c(-c2nn[nH]n2)c1S(N)(=O)=O

>  <uom>
nM

>  <IC50>
0.102

$$$$
>  <compound>
NCCn1nc2cccc(-c3ccc(S(=O)(=O)N[C@@H]4CCNC4)c(S(N)(=O)=O)c3-c3nn[nH]n3)c2n1

>  <uom>
nM

>  <IC50>
0.133

$$$$
>  <compound>
NCCCNS(=O)(=O)c1ccc(-c2cccc3[nH]c(N)nc23)c(-c2nn[nH]n2)c1S(N)(=O)=O

>  <uom>
nM

>  <IC50>
0.0904

$$$$

The value of IC50 measured for the compound Nc1nc2c(-c3ccc(S(=O)(=O)N[C@H]4CN[C@H](CO)C4)c(S(N)(=O)=O)c3-c3nnn[nH]3)cccc2s1 turned out to be 0.183

The value of IC50 measured for the compound Nc1nc2c(-c3ccc(S(=O)(=O)NC4CNC[C@H]4N)c(S(N)(=O)=O)c3-c3nn[nH]n3)cccc2[nH]1 (stereo in doubt) turned out to be 0.182

The value of IC50 measured for the compound CN1CCC(CNS(=O)(=O)c2ccc(-c3cccc4sc(N)nc34)c(-c3nnn[nH]3)c2S(N)(=O)=O)C1.O=C(O)C(F)(F)F (stereo not shown) [Example 102, 2,2,2-trifluoroacetate] turned out to be 0.194
